Lab note: IC50 readings collected with UniProt:Q72874 for the following molecules.
Starred links: 1 amine or outer side, 2 acyl side, 3 side chain; linkers in the order of their positions; H or OH if unused. Non-standard residues stand in square brackets, D forms with d. Residues, ends and D or L forms follow the SMILES beside them. ξ: configuration not given here. Pheψ(R-CH(OH)CH2N)Pro = O=C([C@@H]1CCCN1C[C@@H](O)[C@H](Cc1ccccc1)N[*:1])[*:2]; Sta = CC(C)C[C@H](N)[C@@H](O)CC(=O)O; ξIva = CCC(C)(N)C(=O)O
observation.type: IC50 (µM)

# molecule, target.desc, result.units, experimental.value
data = [
    ("CC[C@H](C)[C@H](NC(=O)[C@@H](C(C)C)C(O)C(O)[C@H](CC1CCCCC1)NC(=O)[C@H](Cc1c[nH]cn1)NC(=O)CO)C(=O)NCc1ccccn1 (some centres not stated)", "UniProt:Q72874", "µM", 0.00899),
    ("CC[C@@H](C)[C@H](NC(=O)[C@@H](CC(C)C)C(O)C(O)[C@H](CC(C)C)NC(=O)C(Cc1c[nH]cn1)NC(=O)COc1cccc2ccccc12)C(=O)NCc1ccccn1 (some centres not stated)", "UniProt:Q72874", "µM", 0.495),
    ("CC(C)CNC(=O)N(C[C@@H](O)[C@H](Cc1ccccc1)NC(=O)[C@H](CC(N)=O)NC(=O)OCc1ccccc1)C(C)(C)C", "UniProt:Q72874", "µM", 0.035),
    ("CC[C@H](C)[C@H](NC(=O)[C@@H](C(C)C)C(O)C(O)[C@H](CC1CCCCC1)NC(=O)CC1CCCCC1)C(=O)NCc1ccccn1 (some centres not stated)", "UniProt:Q72874", "µM", 0.0495),
    ("CC(C)(C)OC(=O)[C@@H]1CCCN1CC(O)[C@H](Cc1ccccc1)NC(=O)[C@H](CC(N)=O)NC(=O)OCc1ccccc1 (some centres not stated)", "UniProt:Q72874", "µM", 0.14),
]

1: COC(=O)[C@@H](NC(=O)[C@H](CC(C)C)NC(=O)[C@@H]1CCCN1C[C@@H](O)[C@H](Cc1ccccc1)NC(=O)[C@H](CC(N)=O)NC(=O)[C@H](CC(C)C)NC(=O)[C@H](CO)NC(C)=O)C(C)C (Ac-SLN[Pheψ(R-CH(OH)CH2N)Pro]LV-OMe)
2: CCC(C)(NC(=O)[C@@H](NC(=O)[C@@H](NC(=O)C[C@H](O)[C@H](CC(C)C)NC(=O)[C@H](C)NC(=O)C[C@H](O)[C@@H](N)CC(C)C)C(C)C)C(C)C)C(=O)O (some centres not stated) (H-[Sta]A[Sta]VV[ξIva]-OH)
Identify the entry with the larger IC50. Options: 1 and 2 // output: label of the selected item
2

---

# target.desc: Human immunodeficiency virus type 1 protease (Human immunodeficiency virus 1, UniProt Q72874)
observation.type: IC50 (nM)

a: CC(C)(C)N(C[C@@H](O)[C@H](Cc1ccccc1)NC(=O)[C@H](CC(N)=O)NC(=O)c1ccc2ccccc2n1)C(=O)NCc1ccccc1
b: CC[C@H](C)[C@H](NC(=O)[C@@H](CC(C)C)C(O)C(O)[C@H](CC1CCCCC1)NC(=O)[C@H](Cc1c[nH]cn1)NC(=O)COc1cccc2ccccc12)C(=O)NCc1ccccn1 (stereo partly drawn)
c: CC(C)(C)NC(=O)[C@@H]1CCCCN1C[C@@H](O)[C@H](Cc1ccccc1)NC(=O)[C@H](CC(N)=O)NC(=O)c1ccc2ccccc2n1
Ordering: ascending IC50. Thanks in advance for listing the labels in the requested order.
a, b, c

---

Lab note: IC50 readings collected with Human immunodeficiency virus type 1 protease (Human immunodeficiency virus 1) for the following compounds.
observation.type: IC50 (nM)

# compound, target.desc, experimental.value
rows = [
    ("CC(C)(C)N(C[C@@H](O)[C@H](Cc1ccccc1)NC(=O)[C@H](CC(N)=O)NC(=O)c1ccc2ccccc2n1)C(=O)NCc1ccncc1", "Human immunodeficiency virus type 1 protease (Human immunodeficiency virus 1)", 19),
]

A: CC[C@H](C)CNC(=O)[C@@H](C(C)C)C(O)C(O)[C@H](CC(C)C)NC(=O)[C@H](Cc1c[nH]cn1)NC(=O)[C@H](Cc1ccccc1)NC(=O)OC(C)(C)C (stereo partly drawn)
B: CC[C@H](C)[C@H](NC(=O)[C@@H](C(C)C)C(O)C(O)[C@H](CC(C)C)NC(=O)[C@H](Cc1c[nH]cn1)NC(=O)COc1cccc2ccccc12)C(=O)NCc1ccccn1 (stereo partly drawn)
Identify the entry with the larger IC50. Options: A and B // output: label of the selected item
A
(A: 809 nM, B: 11.2 nM)

---

# target.desc: Human immunodeficiency virus type 1 protease (Human immunodeficiency virus 1, UniProt Q72874)
observation.type: IC50 (nM)

Would you please look over these solved cases?
# molecule, experimental.value
records = [
    ("CC(C)(C)OC(=O)N[C@@H](Cc1ccccc1)C(O)C[C@@H](Cc1ccccc1)C(=O)N[C@H]1c2ccccc2C[C@H]1O (stereo not given in full)", 252),
    ("CSCC(NC(=O)c1ccc2ccccc2n1)C(=O)N[C@@H](Cc1ccccc1)[C@@H](O)CN1CCCCC1C(=O)NC(C)(C)C (stereo not given in full)", 12),
    ("CC[C@H](C)[C@H](NC(=O)[C@H](CC(C)C)C(O)C(O)[C@H](CC(C)C)NC(=O)[C@H](Cc1c[nH]cn1)NC(=O)COc1cccc2ccccc12)C(=O)NCc1ccccn1 (stereo not given in full)", 15.7),
]

1: CC(C)CCNC(=O)N(C[C@@H](O)[C@H](Cc1ccccc1)NC(=O)[C@H](CC(N)=O)NC(=O)OCc1ccccc1)C(C)(C)C
2: CCCCN(C[C@@H](O)[C@H](Cc1ccccc1)NC(=O)[C@H](CC(N)=O)NC(=O)c1ccc2ccccc2n1)C(=O)NCC(C)C
Identify the entry with the larger IC50. Options: 1 and 2 // output: label of the selected item
2

Numbers sourced from ChEMBL document CHEMBL1126565.
